# System: HT 29 (Colon adenocarcinoma)
# assayMethodText: In vitro cytotoxicity, microculture tetrazolium (MTT) assay, HT29
# Format: cell-based, Human
# testSettings: Homo sapiens, HT-29, 48 h with compound, further 48 h, Table 1
quantityKind: IC50

[[record]]
compound = "CO[C@H]1C[C@H](O[C@@H]2O[C@@H](C(C)=O)CC3=C2C(=O)c2ccccc2C3=O)O[C@@H](C)[C@H]1OS(C)(=O)=O [BCH2072]"
valueobserved = "0.0539 to 0.101 µM"

[[record]]
compound = "CC(C)[C@H]1CC2=C(C(=O)c3ccccc3C2=O)[C@H](O[C@H]2C[C@H](NC(=O)C(F)(F)F)[C@H](O)[C@H](C)O2)O1 [BCH2052]"
valueobserved = "10.6 to 15.4 µM"

[[record]]
compound = "CO[C@@H]1O[C@H](C(=O)O)CC2=C1C(=O)c1ccccc1C2=O (relative stereo) [BCH2119]"
valueobserved = "> 100 µM"

